# Tested on: SK-OV-3
# assay-notes: NCI tumour cell line growth inhibition, 48 h
Active and inactive are the calls of the source. Cut-off read from the data, not from the text of the source: active = GI50 up to about 1.1 µM and inactive = higher.
Outcome codes: active, inactive

[[record]]
smiles = "Cc1c(/C=C2\\CC/C(=C\\c3[nH]c(C(=O)OC(C)(C)C)c(C)c3C)C2=O)[nH]c(C(=O)OC(C)(C)C)c1C"
assayed_system = "SK-OV-3"
assigned_category = "inactive"

[[record]]
smiles = "O=c1oc2ccc(-n3c(=O)c4ccccc4c4ccccc4c3=O)cc2c2ccccc12"
assayed_system = "SK-OV-3"
assigned_category = "inactive"

[[record]]
smiles = "Cc1c(Cl)cccc1N1C(=O)C(Cl)=C(Cl)C1=O"
assayed_system = "SK-OV-3"
assigned_category = "inactive"

[[record]]
smiles = "CS(=O)(=O)Nc1ccc2ccccc2c1"
assayed_system = "SK-OV-3"
assigned_category = "inactive"

[[record]]
smiles = "O=c1cc(-c2ccccc2F)[nH]c2cc3c(cc12)OCO3"
assayed_system = "SK-OV-3"
assigned_category = "active"

